# test summary: in vivo
# recorded conditions: mouse, po, 10 mg/kg
measure: AUC(0-t)

> print(dat)
                              sample.smiles   result.value
1  Cc1ccc(-c2c(-c3nc(C)n4ccnc(N5CCC5)c34)cnn2C)cc1  0.119 µg·h/mL

---

# System: PDE1
# test summary: PDE isoform inhibition, IMAP procedure
# Type: biochemical
pIC50: −log10 of the molar value.
measure: pIC50

> print(dat)
                              sample.smiles  result.value
1  Cc1ccc(-c2c(-c3nc(C)n4ccnc(N5CCC5)c34)cnn2C)cc1          5.08

---

# test summary: in vivo
# recorded conditions: mouse, po, 10 mg/kg
measure: Cmax (ng/mL)

> print(dat)
                              sample.smiles  unit.symbol  result.value
1  Cc1ccc(-c2c(-c3nc(C)n4ccnc(N5CCC5)c34)cnn2C)cc1        ng/mL           268

---

# Test system: PDE3
# test summary: PDE isoform inhibition, IMAP procedure
# Type: biochemical
measure: IC50

> print(dat)
                                   molecule  target.of.assay  result.value
1  Cc1ccc(-c2c(-c3nc(C)n4ccnc(N5CCC5)c34)cnn2C)cc1 [Compound 1]             PDE3      > 100 µM

---

# test summary: in vivo
# recorded conditions: mouse, po, 10 mg/kg
measure: half-life (min)

> print(dat)
                              sample.smiles  unit.symbol  result.value
1  Cc1ccc(-c2c(-c3nc(C)n4ccnc(N5CCC5)c34)cnn2C)cc1          min            48
